# Test system: Human immunodeficiency virus 1
# measurementDescription: Effective concentration required to achieve 50% inhibition of HIV-1 multiplication in MT-4-infected wild type cells
# Format: functional
# testContext: read-out: ED50 (the source's name)
Where a name gives a salt, the structure may show the parent alone.
EC50 vs 8 nM: less than gives class 1; not less than gives class 0.

Query string: Take the compound `CCc1c(Cc2cc(C)cc(C)c2)n(COCC=C(C)C)c(=O)[nH]c1=O` and say whether its EC50 is less than 8 nM.
Result string: class 1

Query string: Take the compound `Cc1ccnc2c1NC(=O)c1cccnc1N2C1CC1` and say whether its EC50 is less than 8 nM.
Result string: class 0

Query string: Take the compound `C=CCOCn1c(Cc2ccccc2)c(C(C)C)c(=O)[nH]c1=O` and say whether its EC50 is less than 8 nM.
Result string: class 1

Query string: Take the compound `C=C(C)COCn1c(Cc2ccccc2)c(C(C)C)c(=O)[nH]c1=O` and say whether its EC50 is less than 8 nM.
Result string: class 0

Query string: Take the compound CC(C)Nc1cccnc1N1CCN(C(=O)c2cc3cc(NS(C)(=O)=O)ccc3[nH]2)CC1 [DELAVIRDINE MESYLATE] and say whether its EC50 is less than 8 nM.
Result string: class 0

Query string: Take the compound `CC(C)=CCOCn1c(Cc2ccccc2)c(C(C)C)c(=O)[nH]c1=O` and say whether its EC50 is less than 8 nM.
Result string: class 0

Query string: Take the compound `C=CCOCn1c(Cc2cc(C)cc(C)c2)c(CC)c(=O)[nH]c1=O` and say whether its EC50 is less than 8 nM.
Result string: class 1

Query string: Take the compound `O=C1Nc2ccc(Cl)cc2[C@@](C#CC2CC2)(C(F)(F)F)O1` and say whether its EC50 is less than 8 nM.
Result string: class 0

###

Provide the reported pEC50 of each item.
# Test system: Human immunodeficiency virus 1
# measurementDescription: Effective concentration required to achieve 50% inhibition of HIV-1 multiplication in MT-4-infected K103N strain
# Assay type: functional
# testContext: read-out: ED50 (the source's name)
Structures can show the parent of a compound that is named as a salt.
# pEC50 = -log10(concentration in molar units)

Per the records, this compound ( `C=C(C)COCn1c(Cc2cc(C)cc(C)c2)c(CC)c(=O)[nH]c1=O` ) has pEC50 equal to 5.66

Per the records, this compound ( `C=CCOCn1c(Cc2cc(C)cc(C)c2)c(CC)c(=O)[nH]c1=O` ) has pEC50 equal to 7.70

Per the records, this compound ( `CC(C)=CCOCn1c(Cc2ccccc2)c(C(C)C)c(=O)[nH]c1=O` ) has pEC50 equal to 5.42

Per the records, this compound ( `O=C1Nc2ccc(Cl)cc2[C@@](C#CC2CC2)(C(F)(F)F)O1` ) has pEC50 equal to 6.46

Per the records, this compound ( `Cc1ccnc2c1NC(=O)c1cccnc1N2C1CC1` ) has pEC50 equal to 5.37

Per the records, this compound ( CC(C)Nc1cccnc1N1CCN(C(=O)c2cc3cc(NS(C)(=O)=O)ccc3[nH]2)CC1 [DELAVIRDINE MESYLATE] ) has pEC50 equal to 5.52

Per the records, this compound ( `CCc1c(Cc2cc(C)cc(C)c2)n(COCC=C(C)C)c(=O)[nH]c1=O` ) has pEC50 equal to 7.05

Per the records, this compound ( `C=CCOCn1c(Cc2ccccc2)c(C(C)C)c(=O)[nH]c1=O` ) has pEC50 equal to 6.05

The measured values listed here are drawn from ChEMBL document CHEMBL1135691.
